- measurement target: Cyclin-dependent kinase 4/cyclin D1 (Homo sapiens)
- Sequence (P11802 whole entry): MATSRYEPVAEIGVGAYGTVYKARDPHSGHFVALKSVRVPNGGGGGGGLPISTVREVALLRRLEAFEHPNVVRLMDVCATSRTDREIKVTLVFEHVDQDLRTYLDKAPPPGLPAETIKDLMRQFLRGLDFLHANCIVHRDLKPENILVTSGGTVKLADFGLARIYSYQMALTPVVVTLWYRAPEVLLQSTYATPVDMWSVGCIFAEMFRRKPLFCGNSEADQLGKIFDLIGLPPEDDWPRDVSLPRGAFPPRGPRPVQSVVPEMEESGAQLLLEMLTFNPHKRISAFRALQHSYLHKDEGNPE
- Sequence (P24385 whole entry): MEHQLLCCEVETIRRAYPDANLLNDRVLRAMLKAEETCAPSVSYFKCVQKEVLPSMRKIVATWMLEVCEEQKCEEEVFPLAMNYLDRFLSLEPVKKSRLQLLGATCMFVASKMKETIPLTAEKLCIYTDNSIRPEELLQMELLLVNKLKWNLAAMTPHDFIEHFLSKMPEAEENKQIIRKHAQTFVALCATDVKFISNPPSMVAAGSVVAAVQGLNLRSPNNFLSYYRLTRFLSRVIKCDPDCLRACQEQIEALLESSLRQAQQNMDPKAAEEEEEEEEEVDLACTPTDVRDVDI
- procedure summary: Inhibition of recombinant human CDK4/cyclin D1 using fluoresceinyl-AhxPro-Val-Lys-Arg-Arg-Leu-(3ClPhe)-Gly as substrate incubated for 45 mins by fluorescence polarization assay
pIC50: −log10 of the molar value. Residues, ends and D or L forms follow the SMILES beside them.
reported property: pIC50

• CC[C@H](C)[C@H](NC(=O)[C@H](CC(C)C)NC(=O)[C@H](CCCNC(=N)N)NC(=O)c1ccc(CN2CCNCC2)c(O)c1)C(=O)N[C@@H](Cc1ccccc1)C(=O)O (HELM PEPTIDE1{[O=C(c1ccc(CN2CCNCC2)c(O)c1)[*:2]].R.L.I.F}$$$$V2.0) = 4.98
• CCCN1CCN(Cc2ccc(C(=O)N[C@@H](CCCNC(=N)N)C(=O)NC(CC(=O)NC(Cc3ccsc3)C(N)=O)CC(C)C)cc2)[C@@H](C)C1 (some centres undefined) = 5.03
• CC(C)CC(CC(=O)N(C)[C@@H](Cc1ccccc1)C(N)=O)NC(=O)[C@H](CCCNC(=N)N)NC(=O)c1ccc(CN2CCN(C3CCN(C)CC3)CC2)cc1 (some centres undefined) = 4.31
• CC[C@H](C)[C@H](NC(=O)[C@H](CC(C)C)NC(=O)[C@H](C)NC(=O)c1ccc(CN2CCNCC2)cc1)C(=O)N[C@@H](Cc1ccccc1)C(=O)O (HELM PEPTIDE1{[O=C(c1ccc(CN2CCNCC2)cc1)[*:2]].A.L.I.F}$$$$V2.0) = 4.29
• CC(C)CC(CC(=O)N(C)[C@@H](Cc1ccccc1)C(N)=O)NC(=O)[C@H](CCCNC(=N)N)NC(=O)c1ccc(OC2CCNCC2)cc1 (some centres undefined) = 4.51
• CC[C@H](C)[C@H](NC(=O)[C@H](CC(C)C)NC(=O)[C@H](CCCNC(=N)N)NC(=O)c1ccc(CN2CCNCC2)cc1)C(=O)N[C@@H](Cc1ccccc1)C(=O)O (HELM PEPTIDE1{[O=C(c1ccc(CN2CCNCC2)cc1)[*:2]].R.L.I.F}$$$$V2.0) = 4.93
• CC(C)CC(CC(=O)N(C)[C@@H](Cc1ccccc1)C(N)=O)NC(=O)[C@H](CCCNC(=N)N)NC(=O)c1ccc(CN2CCNCC2)c(O)c1 (some centres undefined) = 4.93
• CC(C)C[C@H](NC(=O)[C@H](CCCNC(=N)N)NC(=O)c1ccc(CN2CCNCC2)cc1)C(=O)N[C@@H](CC(N)=O)C(=O)N1CCC[C@@H]1C(=O)N[C@H](Cc1ccccc1)C(=O)N[C@@H](Cc1ccccc1)C(=O)O = 4.89
